molecular target: ROCK I (AA 6-553) (Homo sapiens, UniProt Q13464)
Sequence (Q13464 6-553, species assumed): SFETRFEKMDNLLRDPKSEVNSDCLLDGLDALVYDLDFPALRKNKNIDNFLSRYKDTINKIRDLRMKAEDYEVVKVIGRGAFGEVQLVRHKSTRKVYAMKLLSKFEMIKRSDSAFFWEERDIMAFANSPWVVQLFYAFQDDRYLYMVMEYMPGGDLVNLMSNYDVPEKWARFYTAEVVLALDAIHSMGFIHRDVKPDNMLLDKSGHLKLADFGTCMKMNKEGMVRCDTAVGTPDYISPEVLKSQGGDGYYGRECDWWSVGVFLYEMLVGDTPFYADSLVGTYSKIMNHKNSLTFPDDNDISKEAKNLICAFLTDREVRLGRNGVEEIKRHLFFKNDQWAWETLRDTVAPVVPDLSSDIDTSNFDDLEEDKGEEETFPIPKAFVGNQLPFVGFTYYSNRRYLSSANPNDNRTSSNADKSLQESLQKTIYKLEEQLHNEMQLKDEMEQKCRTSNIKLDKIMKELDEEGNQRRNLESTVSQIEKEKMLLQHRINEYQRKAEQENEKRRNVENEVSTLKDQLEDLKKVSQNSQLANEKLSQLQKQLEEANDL
pKi: −log10 of the molar value.

smilesStr	tgt	pKi
CCCC(=O)N1CCN(c2cccc(-c3c[nH]c4ncc(Cl)cc34)n2)CC1	ROCK I (AA 6-553) (Homo sapiens, UniProt Q13464)	5.30 to 6.30
Clc1cnc2[nH]cc(-c3cccc(N4CCNCC4)n3)c2c1	ROCK I (AA 6-553) (Homo sapiens, UniProt Q13464)	> 6.30
C[C@H](Nc1nc(-c2c[nH]c3ncc(Cl)cc23)ncc1F)C(=O)NCCc1ccccc1	ROCK I (AA 6-553) (Homo sapiens, UniProt Q13464)	5.30 to 6.30
C[C@H](Nc1nc(-c2c[nH]c3ncc(Cl)cc23)ncc1C#N)C(=O)NCC(F)(F)F	ROCK I (AA 6-553) (Homo sapiens, UniProt Q13464)	5.30 to 6.30
